Numbers sourced from paper PMC5540273.

# Tested on: MST3
# Construct: gene STK24
# conditionContext: concentration: 1 μM, replicates: in singlicate; n = 1;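 further: KINOMEscan kinase panel screen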
readoutName: %Inh (%)
Give a bare numeral; the unit % is implied.

Answer with reported %Inh of CC(C)Oc1ccc2c(-c3ccnc(Nc4ccc(N5CCN(C)CC5)cc4)n3)cnn2n1 [GW696155] 59

Answer with reported %Inh of CNc1ncnc2[nH]ncc12 [SKF-18355] 0

Answer with reported %Inh of O=C(NCCNc1ccnc(Nc2ccc(F)cc2)n1)Nc1ccccc1F [GSK1379880] 0

Answer with reported %Inh of CN(C(=O)c1ccc(-c2cc(-c3c[nH]nc3-c3ccccn3)ccn2)cc1)C1CCOCC1 [GW810083] 34

Answer with reported %Inh of Cc1cccc(-c2nc(-c3ccc(S(C)(=O)=O)cc3)sc2-c2ccncc2)c1 5

Answer with reported %Inh of CC(=O)Nc1ccc(COc2ccc(Nc3ccnc4cc(-c5ccccn5)ccc34)cc2)cc1.Cl [GW440148] 22

Answer with reported %Inh of O=c1cc(N2CCOCC2)nc2n(Cc3cccc(Cl)c3Cl)c(C3CC3)nn12 [GSK2358994] 4

Answer with reported %Inh of O=C1Cc2cc(Nc3nc(NCc4cccc(S(=O)(=O)C(F)(F)F)c4)ncc3C(F)(F)F)ccc2N1 0

Answer with reported %Inh of COc1ccc(Nc2nccc(N3CCC(NC(=O)Nc4cc(C)ccc4C)C3)n2)cc1 (stereo not shown) [GSK1379741] 0

Answer with reported %Inh of C[C@@H](Oc1cc(-n2cnc3ccc(NC(=O)NC(C)(C)C)cc32)sc1C(N)=O)c1ccccc1Cl [GSK346294] 13

====

# System: TIE1
# conditionContext: concentration: 1 μM, replicates: in singlicate; n = 1
For each entry below, report its %Inh value.
Give a bare numeral; the unit % is implied.

Recall the reported %Inh of CN1c2ccc(CNc3ccc(F)cc3)cc2-c2c(cnn2C)S1(=O)=O on TIE1 and write it down. 0

Recall the reported %Inh of Cc1ccc(C(=O)NCC(N)=O)cc1-n1c(C)cc(OCc2ccc(F)cc2F)c(Br)c1=O on TIE1 and write it down. 0

Recall the reported %Inh of N#Cc1ccc(-c2cc(-c3c[nH]nc3-c3ccccn3)ccn2)cc1 [GW693028] on TIE1 and write it down. 0

====

# System: FYN
# conditionContext: concentration: 1 μM, replicates: in singlicate; n = 1
readoutName: %Inh (%)
Give a bare numeral; the unit % is implied.

Answer with reported %Inh of CN(C(=O)c1ccc(-c2cc(-c3c[nH]nc3-c3ccccn3)ccn2)cc1)C1CCOCC1 [GW810083] 1

Answer with reported %Inh of Cc1cccc(Cn2ccn3c(=O)cc(N4CCOCC4)nc23)c1 [GSK2297542] 21

Answer with reported %Inh of COc1cc2c(cc1OCCN1CCN(C)CC1)ncc1c3ccc(C#N)cc3[nH]c21 25

Answer with reported %Inh of COc1ccc(Nc2nccc(N3CCC(NC(=O)Nc4cc(C)ccc4C)C3)n2)cc1 (centres unmarked) [GSK1379741] 2

Answer with reported %Inh of Cc1nnc(-c2ccc3occ(-c4ccc(C(C)O)cc4)c3c2)o1 (centres unmarked) 15

====

# Test system: ACVR1
# conditionContext: concentration: 1 μM, replicates: in singlicate; n = 1
For each entry below, report its %Inh value.
For clarity, give the value followed by its unit.

Answer with reported %Inh of Cc1c2ccc(N(C)c3ccnc(Nc4cccc(S(N)(=O)=O)c4)n3)cc2nn1Cc1ccccc1.Cl.Cl 0%

Answer with reported %Inh of Nc1nccc(-c2c(-c3ccc(F)cc3)ncn2C2CCN(CC(F)(F)F)CC2)n1 19%

Answer with reported %Inh of CC(C)(C)n1cnc2c(N)ncnc21 0%

Answer with reported %Inh of COc1cc2c(cc1OC[C@@H](O)CO)ncc1c3ccc(C#N)cc3[nH]c21 0%

Answer with reported %Inh of O=c1cc(N2CCOCC2)nc2n(Cc3cccc(C(F)(F)F)c3)ccn12 5%

Answer with reported %Inh of Cn1ccc2ncnc(Oc3ccc(NC(=O)Nc4ccncc4)c(Cl)c3)c21 0%

Answer with reported %Inh of O=C(c1ccc(-c2cc(-c3c[nH]nc3-c3ccccn3)ccn2)cc1)N1CCOCC1 0%

Answer with reported %Inh of NS(=O)(=O)CCc1cccc(Nc2nccc(-c3c(-c4cccc(NC(=O)c5c(F)cccc5F)c4)nn4ccccc34)n2)c1 0%

Answer with reported %Inh of COc1ccc(Nc2nccc(N3CCC(NC(=O)Nc4cc(C)ccc4C)C3)n2)cc1 (stereo not drawn) 0%

====

# System: PRKG1
# conditionContext: concentration: 1 μM, replicates: in singlicate; n = 1
readoutName: %Inh (%)
Give a bare numeral; the unit % is implied.

Answer with reported %Inh of COCCNC(=O)c1ccc(-c2cc(C(=O)NC3CC3)cc(F)c2C)cc1 [GW868318] 7

Answer with reported %Inh of Cc1cccc(Cn2ccn3c(=O)cc(N4CCOCC4)nc23)c1 [GSK2297542] 0

Answer with reported %Inh of COc1ccc(S(=O)(=O)NC2CCN(c3cc(C)nc(Nc4cccc(C#N)c4)n3)CC2)cc1.O=C(O)C(F)(F)F [GSK1653539] 0

Answer with reported %Inh of NS(=O)(=O)c1cccc(-c2ccc3nccc(-c4cccc(S(N)(=O)=O)c4)c3c2)c1 [GW867253] 28

====

# Test system: AURKA
# conditionContext: concentration: 1 μM, replicates: in singlicate; n = 1
readoutName: %Inh (%)
Give a bare numeral; the unit % is implied.

Answer with reported %Inh of COC(=O)Nc1nc2cc(Oc3ccc(NC(=O)Nc4cc(F)ccc4F)cc3)ccc2[nH]1.Cl [GW701424] 0

Answer with reported %Inh of N#Cc1ccc(-c2cc(-c3c[nH]nc3-c3ccccn3)ccn2)cc1 [GW693028] 0

Answer with reported %Inh of CNc1ncnc2[nH]ncc12 [SKF-18355] 2

Answer with reported %Inh of CSc1ccc(-c2cc3ncnc(SCC(=O)O)c3s2)cc1 0

Answer with reported %Inh of COc1ccc(Nc2nccc(N3CCC(NC(=O)Nc4cccc(C(C)=O)c4)C3)n2)cc1 (stereo not shown) [GSK1379731] 0

Answer with reported %Inh of COCCNC(=O)c1ccc(-c2cc(C(=O)NC3CC3)cc(F)c2C)cc1 [GW868318] 27

Answer with reported %Inh of O=c1cc(N2CCOCC2)nc2n(Cc3cccc4ccccc34)ccn12 [GSK2333389] 0

Answer with reported %Inh of N#Cc1c(N2CCOCC2)sc(-c2ccn[nH]2)c1-c1ccc(Cl)cc1 44

Answer with reported %Inh of CN(C1=C(c2ccccc2)C(=O)NC1=O)c1ccccc1 [SB-334860] 21

Answer with reported %Inh of Cc1nnc(-c2ccc3occ(-c4ccc(C(C)O)cc4)c3c2)o1 (stereo not shown) 13

====

# Test system: LRRK2
# conditionContext: concentration: 1 μM, replicates: in singlicate; n = 1
Decision: %Inh compared against 3%; not below it gives Condition met, below it gives Condition not met.

Given O=c1cc(N2CCOCC2)nc2n(Cc3cccc(Cl)c3Cl)c(C3CC3)nn12 , state whether its %Inh is at least 3%. Condition not met

Given COc1cc(Nc2nccc(N3CCC(NC(=O)c4cccc(NC(C)=O)c4)C3)n2)cc(OC)c1OC (stereo not shown) , state whether its %Inh is at least 3%. Condition met

Given O=C(NOCC1CC1)c1ccc(F)c(F)c1Nc1ccc(I)cc1Cl , state whether its %Inh is at least 3%. Condition not met

Given Cc1nnc(-c2ccc(C)c(-c3ccc(C(=O)Nc4ccc(NS(C)(=O)=O)cc4)cc3)c2)o1 , state whether its %Inh is at least 3%. Condition not met

Given O=c1cc(N2CCOCC2)nc2n(Cc3cccc(F)c3)ccn12 , state whether its %Inh is at least 3%. Condition met

Given Fc1ccc(-c2ncn(CCCN3CCOCC3)c2-c2cccnc2)cc1 , state whether its %Inh is at least 3%. Condition not met

Given O=C(NCCNc1ccnc(Nc2ccc(F)cc2)n1)Nc1ccccc1F , state whether its %Inh is at least 3%. Condition not met

Given COc1ccc(Nc2nccc(N3CCC(NC(=O)Nc4cccc(C(C)=O)c4)C3)n2)cc1 (stereo not shown) , state whether its %Inh is at least 3%. Condition not met

Given CC(C)Oc1ccc2c(-c3ccnc(Nc4ccc(N5CCN(C)CC5)cc4)n3)cnn2n1 , state whether its %Inh is at least 3%. Condition met

Given CNc1ncnc2[nH]ncc12 , state whether its %Inh is at least 3%. Condition not met

Given Fc1ccc(-c2nn3c(OCC(F)(F)F)cccc3c2-c2ccncc2)cc1 , state whether its %Inh is at least 3%. Condition met

Given CCCCCc1nc2c(N)ncnc2n1CCCCC , state whether its %Inh is at least 3%. Condition not met

Given CC(C)(C)n1cnc2c(N)ncnc21 , state whether its %Inh is at least 3%. Condition not met

Given Cc1c(Cn2c(C)nn3c(=O)cc(N4CCOC(C)C4)nc23)cccc1C(F)(F)F (stereo not shown) , state whether its %Inh is at least 3%. Condition met

Given COc1cc2c(cc1OC[C@@H](O)CO)ncc1c3ccc(C#N)cc3[nH]c21 , state whether its %Inh is at least 3%. Condition met

Given CC(=O)Nc1ccc(COc2ccc(Nc3ccnc4cc(-c5ccccn5)ccc34)cc2)cc1.Cl , state whether its %Inh is at least 3%. Condition not met

Given COc1ccc(CNC(=O)NC2CCN(c3ccnc(Nc4ccc(OC)cc4)n3)C2)cc1 (stereo not shown) , state whether its %Inh is at least 3%. Condition not met

Given CN(C1=C(c2ccccc2)C(=O)NC1=O)c1ccccc1 , state whether its %Inh is at least 3%. Condition not met

Given COc1ccc(COc2cc(-n3cnc4ccccc43)sc2C(N)=O)cc1 , state whether its %Inh is at least 3%. Condition met

Given CN1c2ccc(CNc3ccc(F)cc3)cc2-c2c(cnn2C)S1(=O)=O , state whether its %Inh is at least 3%. Condition not met

Given Cc1cccc(-c2nc(Nc3ccc4ncsc4c3)c3ccccc3n2)n1 , state whether its %Inh is at least 3%. Condition met

Given COCCNC(=O)c1ccc(-c2cc(C(=O)NC3CC3)cc(F)c2C)cc1 , state whether its %Inh is at least 3%. Condition met

Given O=C1NC(=O)C(N2CCc3ccccc32)=C1c1cccc(Cl)c1 , state whether its %Inh is at least 3%. Condition met

Given Cl.Oc1cccc(Nc2ccnc3cc(-c4ccncc4)ccc23)c1 , state whether its %Inh is at least 3%. Condition met

Given O=C(NCCCN1CCOCC1)c1cccc(Nc2nccc(Nc3ccc(Oc4ccccc4)cc3)n2)c1 , state whether its %Inh is at least 3%. Condition not met

Given CCc1ccnc(/C=C/c2n[nH]c3cc(Sc4ccccc4C(=O)NC)ccc23)c1 , state whether its %Inh is at least 3%. Condition met

Given Cc1cccc(Cn2ccn3c(=O)cc(N4CCOCC4)nc23)c1 , state whether its %Inh is at least 3%. Condition not met

Given C[C@@H](Oc1cc(-n2cnc3ccc(NC(=O)NC(C)(C)C)cc32)sc1C(N)=O)c1ccccc1Cl , state whether its %Inh is at least 3%. Condition not met

Given c1ccc(-c2cc(-c3c[nH]nc3-c3ccccn3)ccn2)cc1 , state whether its %Inh is at least 3%. Condition not met

Given CCn1cnc2c(N)ncnc21 , state whether its %Inh is at least 3%. Condition not met

Given N#Cc1ccc(-c2cc(-c3c[nH]nc3-c3ccccn3)ccn2)cc1 , state whether its %Inh is at least 3%. Condition met

Given Cn1ccc2ncnc(Oc3ccc(NC(=O)Nc4ccncc4)c(Cl)c3)c21 , state whether its %Inh is at least 3%. Condition not met

Given COc1ccc(Nc2nccc(N3CCC(NC(=O)Nc4cc(C)ccc4C)C3)n2)cc1 (stereo not shown) , state whether its %Inh is at least 3%. Condition not met

Given COc1cc2c(cc1OCCN1CCN(C)CC1)ncc1c3ccc(C#N)cc3[nH]c21 , state whether its %Inh is at least 3%. Condition met

Given N#Cc1c(N2CCOCC2)sc(-c2ccn[nH]2)c1-c1ccc(Cl)cc1 , state whether its %Inh is at least 3%. Condition not met

Given Cn1cc(-c2ccc3c(c2)CCN3C(=O)Cc2ccccc2Cl)c2c(N)ncnc21 , state whether its %Inh is at least 3%. Condition not met
